Biological target: Adenosine receptor A1 (Homo sapiens)
Sequence (P30542 whole entry): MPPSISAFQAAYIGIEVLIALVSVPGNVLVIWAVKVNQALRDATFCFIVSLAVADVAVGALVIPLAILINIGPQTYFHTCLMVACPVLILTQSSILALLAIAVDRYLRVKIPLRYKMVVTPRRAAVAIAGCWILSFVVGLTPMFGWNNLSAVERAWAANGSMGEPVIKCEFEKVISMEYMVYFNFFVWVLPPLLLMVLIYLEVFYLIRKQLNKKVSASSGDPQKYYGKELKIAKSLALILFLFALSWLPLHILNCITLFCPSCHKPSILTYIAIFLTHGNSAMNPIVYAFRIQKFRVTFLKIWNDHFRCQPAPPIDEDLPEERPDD
Listed next: entries and their corresponding Ki.

[
  {
    "compound": "NCCCCCNC(=O)[C@H]1O[C@@H](n2cnc3c(N)ncnc32)[C@H](O)[C@@H]1O [Adenosine analog, 10]",
    "assayed-target": "Adenosine receptor A1 (Homo sapiens)",
    "rel": ">",
    "Ki / nM": 100000
  },
  {
    "compound": "CCNC(=O)[C@H]1O[C@@H](n2cnc3c(N=C(N)N)ncnc32)[C@H](O)[C@@H]1O",
    "assayed-target": "Adenosine receptor A1 (Homo sapiens)",
    "rel": "=",
    "Ki / nM": 7
  },
  {
    "compound": "Cc1ccccc1CNc1ncnc2c1ncn2[C@@H]1O[C@H](C(=O)NCCN)[C@@H](O)[C@H]1O [Adenosine analog, 14]",
    "assayed-target": "Adenosine receptor A1 (Homo sapiens)",
    "rel": ">",
    "Ki / nM": 10000
  },
  {
    "compound": "Cc1ccccc1CNc1ncnc2c1ncn2[C@@H]1O[C@H](C(=O)NCCO)[C@@H](O)[C@H]1O [Adenosine analog, 15]",
    "assayed-target": "Adenosine receptor A1 (Homo sapiens)",
    "rel": "=",
    "Ki / nM": 368
  },
  {
    "compound": "NCCCNC(=O)[C@H]1O[C@@H](n2cnc3c(N)ncnc32)[C@H](O)[C@@H]1O [Adenosine analog, 8]",
    "assayed-target": "Adenosine receptor A1 (Homo sapiens)",
    "rel": ">",
    "Ki / nM": 100000
  }
]
